B1: glmS ribozyme (parent)
chain: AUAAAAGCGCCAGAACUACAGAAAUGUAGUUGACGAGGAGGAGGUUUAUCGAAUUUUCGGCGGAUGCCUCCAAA

# Variants of: B1
# Protocol summary: self-cleavage kobs at 160 uM GlcN6P; higher = faster cleavage; RNA array
# Setup conditions: with glucosamine-6-phosphate
This sample holds only a part of the variants without activity.
Property: self-cleavage kobs at 160 uM GlcN6P; scope: individual variants
Enter your answer as a number in s⁻¹; do not include the unit.

Below are worked cases with known answers.
Value of measured self-cleavage kobs at 160 uM GlcN6P for the entry G13A U54G : 5.52e-05

Lab note: `C16U` gave self-cleavage kobs at 160 uM GlcN6P of 0.00308

Note to self: self-cleavage kobs at 160 uM GlcN6P recorded for U30C C68G was 5.26e-05

Memo: A53U C68G , reported self-cleavage kobs at 160 uM GlcN6P: 8.2e-05

Now take the following variant into account.
# variant G40A U45A ; its self-cleavage kobs at 160 uM GlcN6P = 0.000585

Ref: the supplement of paper PMC7125110
